# ASSAY_DETAILS: Metabolic stability by incubation with rat liver microsomes treated with 3-methylcholanthrene
# Format: ADME, Microsome
# CONDITION_NOTES: 3-methylcholanthrene-treated
MEASURE_NAME: half-life (h)
Numbers only; they are read as h.

compound=COc1ccc2cc(CC/C(C)=N/O)ccc2c1 measure_name=half-life number=0.0333

What measured half-life goes with CC(C(=O)O)c1cccc(/C(=N\O)c2ccccc2)c1 (configuration not stated) ?
100

###

# ASSAY_DETAILS: Metabolic stability by incubation with rat liver microsomes
# Assay type: ADME, Microsome
MEASURE_NAME: half-life (h)
Numbers only; they are read as h.

compound="CC(C(=O)O)c1cccc(/C(=N\\O)c2ccccc2)c1 (configuration not stated)" number=167

What measured half-life goes with COc1ccc2cc(CC/C(C)=N/O)ccc2c1 ?
0.967

###

# ASSAY_DETAILS: Chemical stability at pH 1.0
# Type: physicochemical
# CONDITION_NOTES: buffer
This section presents compounds with their documented half-life values.
Numbers only; they are read as h.

compound=COc1ccc2cc(CC/C(C)=N/O)ccc2c1 measure_name=half-life unit_label=h number=0.1

Next up:
What measured half-life goes with CC(C(=O)O)c1cccc(/C(=N\O)c2ccccc2)c1 (configuration not stated) ?
6

###

# ASSAY_DETAILS: Distribution coefficient at pH 5.0, log D
# CONDITION_NOTES: octanol/water
MEASURE_NAME: logD
// print number alone

What measured logD goes with COc1ccc2cc(CCC(C)=O)ccc2c1 ?
3.2

What measured logD goes with CC(C(=O)O)c1cccc(C(=O)c2ccccc2)c1 (stereo not drawn) ?
2.1

What measured logD goes with COc1ccc2cc(CC/C(C)=N/O)ccc2c1 ?
3.6

###

# ASSAYED_SYSTEM: CYP2B6 (Homo sapiens, UniProt P20813)
# Sequence (P20813 whole entry): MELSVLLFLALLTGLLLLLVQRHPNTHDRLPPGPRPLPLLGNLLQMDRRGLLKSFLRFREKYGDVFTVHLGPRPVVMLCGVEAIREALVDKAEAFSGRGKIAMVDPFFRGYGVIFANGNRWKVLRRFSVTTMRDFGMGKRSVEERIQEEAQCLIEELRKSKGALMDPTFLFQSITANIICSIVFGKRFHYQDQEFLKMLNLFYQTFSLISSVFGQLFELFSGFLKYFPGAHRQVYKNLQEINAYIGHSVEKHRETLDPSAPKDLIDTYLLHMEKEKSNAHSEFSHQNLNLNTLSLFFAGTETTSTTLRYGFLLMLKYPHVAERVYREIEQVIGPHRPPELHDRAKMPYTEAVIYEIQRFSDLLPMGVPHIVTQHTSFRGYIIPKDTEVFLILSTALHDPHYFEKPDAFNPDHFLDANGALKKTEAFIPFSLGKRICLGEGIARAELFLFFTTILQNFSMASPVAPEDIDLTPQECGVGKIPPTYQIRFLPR
# ASSAY_DETAILS: Binding constant for compound binding to CYP2B6
# Assay type: ADME
MEASURE_NAME: Km
Put down the number, then write its unit next to it.

What measured Km goes with COc1ccc2cc(CC/C(C)=N/O)ccc2c1 ?
70 µM

###

# ASSAY_DETAILS: Chemical stability at pH 3.0
# Format: physicochemical
# CONDITION_NOTES: buffer
MEASURE_NAME: half-life (min)
Numbers only; they are read as min.

What measured half-life goes with COc1ccc2cc(CC/C(C)=N/O)ccc2c1 ?
11
